Where do these numbers come from? They come from ChEMBL document CHEMBL4689842.

system: U2OS; experiment: Multiplex assay against U2OS; format: toxicity, cell-based; settings: human, 12 h, 1 µM, compound concentration 1 uM, replicate 2
Quick rule for you: Population Normal (%) under 90% gets condition met, anything else gets condition not met.

Study these solved cases before continuing.
> print(dat)
                                   molecule        label.value
1  CC(/C=C1\SC(=S)N(CCCC(=O)Nc2ccc(C(=O)O)c(O)c2)C1=O)=C\c1ccccc1  condition not met
2  Cc1c(Nc2ccc(S(=O)(=O)N3CCN(C)CC3)cc2F)nc2ccc(Nc3cnn(C4CC4)c3)cn2c1=O  condition not met

# input Is 90% strictly greater than the molecule's reported Population Normal (%)? molecule: NC(=O)c1ccc2nc(-c3ccc(C4(N)CCC4)cc3)c(-c3ccccc3)n2n1 [BAY-1125976]
# output condition met

# input Is 90% strictly greater than the molecule's reported Population Normal (%)? molecule: CCCCCNC(=N)N/N=C/c1c[nH]c2ccc(OC)cc12.O=C(O)/C=C\C(=O)O [TEGASEROD MALEATE]
# output condition not met
